# System: MDA-N
# test method notes: NCI tumour cell line growth inhibition, 48 h
parameter measured: TGI

*Q* Would you mind telling me what TGI value was observed for Cc1cccc2[nH]c3cc(O)cc(O)c3c(=O)c12 ?
*A* > 10 µM

*Q* Would you mind telling me what TGI value was observed for NCC[Se][Se]CCN ?
*A* 23.4 µM

*Q* Would you mind telling me what TGI value was observed for O=C(O)c1nc2cc(C(F)(F)F)ccc2nc1Nc1ccc(Cl)c(Cl)c1 ?
*A* 69.2 µM

*Q* Would you mind telling me what TGI value was observed for CCOC(=O)N1CCN(c2c(C)nc(C)[nH]c2=O)CC1 ?
*A* > 100 µM

*Q* Would you mind telling me what TGI value was observed for CCOc1cc(-c2nc3ccccn3c2/N=C/c2cc([N+](=O)[O-])cc([N+](=O)[O-])c2O)ccc1O ?
*A* > 100 µM

*Q* Would you mind telling me what TGI value was observed for COc1ccc(NS(=O)c2ccc(-c3ccccc3)cc2)cc1 (centres undefined) ?
*A* > 100 µM

*Q* Would you mind telling me what TGI value was observed for CCCCC1Cc2ccccc2-c2n1c1ccccc1[n+]2C (centres undefined) ?
*A* 64.5 µM

*Q* Would you mind telling me what TGI value was observed for COc1cc(O)c2c(=O)c(OC)c(-c3ccc4c(c3)OCO4)oc2c1 ?
*A* > 100 µM

*Q* Would you mind telling me what TGI value was observed for Cn1c(NN)nc(-c2ccc([N+](=O)[O-])cc2)c(C#N)c1=O ?
*A* 24.9 µM

*Q* Would you mind telling me what TGI value was observed for NC(=O)c1cc(-c2ccc(-n3ccnc3)cc2)n[nH]c1=O ?
*A* > 100 µM

*Q* Would you mind telling me what TGI value was observed for COC(=O)C1=C(OC(=O)/C(=C/c2ccc(Cl)cc2Cl)c2ccc(Cl)cc2Cl)C(C(=O)OC)[C@@]2(O)[C@@H](C(=O)OC)[C@H](C)C[C@@H]1[C@@H]2C(=O)OC (some centres undefined) ?
*A* > 100 µM

*Q* Would you mind telling me what TGI value was observed for CN1CCC(CNC(=O)CCCCCCCCC(=O)NCC2(c3ccccc3)CCN(C)CC2)(c2ccccc2)CC1 ?
*A* > 100 µM

*Q* Would you mind telling me what TGI value was observed for CC(=O)Nc1ccc(-c2c3nc(c(-c4cc5ccccc5[n+](C)c4)c4ccc([nH]4)c(-c4ccc(NC(C)=O)cc4)c4nc(c(-c5cc6ccccc6[n+](C)c5)c5ccc2[nH]5)C=C4)C=C3)cc1 ?
*A* 36.7 µM

*Q* Would you mind telling me what TGI value was observed for CC(=O)NC1=C(C)C(=O)c2c(nc3n2CCC3OC(=O)c2ccccc2)C1=N (centres undefined) ?
*A* 0.347 µM

*Q* Would you mind telling me what TGI value was observed for C=C1CC(Cn2ccc(=O)[nH]c2=O)(c2ccc(-c3ccccc3)cc2)OC1=O (centres undefined) ?
*A* 3.5 µM

*Q* Would you mind telling me what TGI value was observed for O=c1[nH]c(=O)n(C2CC(O)C(CO)O2)cc1OCCc1ccccc1 (centres undefined) ?
*A* > 100 µM

*Q* Would you mind telling me what TGI value was observed for O=[N+]([O-])c1ccc(N=Nc2c(O)ccc3cc(S(=O)(=O)O)ccc23)cc1 ?
*A* > 100 µM

*Q* Would you mind telling me what TGI value was observed for C=CCN1C(=O)CC1N(CC=C)S(=O)(=O)c1ccc(C)cc1 (centres undefined) ?
*A* > 100 µM

*Q* Would you mind telling me what TGI value was observed for CC1=C(C(=O)N[C@@H](Cc2ccccc2)C(=O)O)N2C(=O)[C@@H](NC(=O)[C@@H](N)CC(C)C)[C@H]2SC1 ?
*A* > 100 µM
